test system: NAD(P)H:quinone reductase 1 (QR1); conditions: Taoc1BP^rc1 and BP^rc1 mutant cell lines
value kind: QR1 induction activity in the mutant cell lines (in words)

molecule	reported
Clc1ccc(Cl)c(-c2nc(-c3ccccc3)cs2)c1 [Compound 9g, 2-(2,5-Dichlorophenyl)-4-phenylthiazole]	active
COc1cccc(-c2csc(-c3ccccc3)n2)c1 [Compound 9n, 4-(3-Methoxyphenyl)-2-phenylthiazole]	not active
Clc1cccc(-c2nc(-c3ccccc3)cs2)c1Cl [Compound 9c, 2-(2,3-Dichlorophenyl)-4-phenylthiazole]	active
COc1cccc(-c2csc(-c3cccc(OC)c3)n2)c1 [Compound 9o]	not active

Ask: May I ask what QR1 induction activity in the mutant cell lines (in words) has been recorded for COc1cccc(-c2nc(-c3ccccc3)cs2)c1 [Compound 9e, 2-(3-Methoxyphenyl)-4-phenylthiazole] ?
Reply: not active

---

test system: NAD(P)H:quinone reductase 1 (QR1); conditions: from QR1 induction in Taoc1BP^rc1 and BP^rc1 mutants
value kind: Inducer class (monofunctional / bifunctional)

compound string	reported
COc1cccc(-c2csc(-c3cc(Cl)ccc3C)n2)c1	monofunctional
Cc1cc(Cl)ccc1-c1nc(-c2ccccc2)cs1	monofunctional
Cc1ccc(Cl)cc1-c1nc(-c2ccccc2)cs1	monofunctional

---

Entries and their EC (2-fold QR1 activity) values follow.
system: NAD(P)H:quinone reductase 1 (QR1); assay: cells; conditions: Mus musculus, 48 h, read-out: CD (concentration that doubles the activity)

Ask: What measured EC (2-fold QR1 activity) is associated with COc1cccc(-c2nsc(-c3cccc(OC)c3)n2)c1 on NAD(P)H:quinone reductase 1 (QR1)?
Reply: > 50 µM

Ask: What measured EC (2-fold QR1 activity) is associated with COc1cccc(-c2noc(-c3cccc(OC)c3)n2)c1 on NAD(P)H:quinone reductase 1 (QR1)?
Reply: > 50 µM

Ask: What measured EC (2-fold QR1 activity) is associated with Fc1ccccc1-c1nsc(-c2ccccc2F)n1 on NAD(P)H:quinone reductase 1 (QR1)?
Reply: 29.4 µM

Ask: What measured EC (2-fold QR1 activity) is associated with COc1cccc(-c2nc(-c3ccccc3)cs2)c1 on NAD(P)H:quinone reductase 1 (QR1)?
Reply: > 50 µM

Ask: What measured EC (2-fold QR1 activity) is associated with COc1cccc(-c2csc(-c3cccc(Cl)c3C)n2)c1 on NAD(P)H:quinone reductase 1 (QR1)?
Reply: > 50 µM
